target: full-length beta-Catenin (Uniprot ID P35222) (Homo sapiens, UniProt P35222); construct: 10 nM full-length beta-Catenin (Uniprot ID P35222); assay: Fluorescence polarization IC50 (beta-catenin / 5FAM-TCF4 10-53 competition); format: binding; conditions: fluorescence polarization; read-out: beta-Catenin FP IC50
Sequence (P35222 whole entry): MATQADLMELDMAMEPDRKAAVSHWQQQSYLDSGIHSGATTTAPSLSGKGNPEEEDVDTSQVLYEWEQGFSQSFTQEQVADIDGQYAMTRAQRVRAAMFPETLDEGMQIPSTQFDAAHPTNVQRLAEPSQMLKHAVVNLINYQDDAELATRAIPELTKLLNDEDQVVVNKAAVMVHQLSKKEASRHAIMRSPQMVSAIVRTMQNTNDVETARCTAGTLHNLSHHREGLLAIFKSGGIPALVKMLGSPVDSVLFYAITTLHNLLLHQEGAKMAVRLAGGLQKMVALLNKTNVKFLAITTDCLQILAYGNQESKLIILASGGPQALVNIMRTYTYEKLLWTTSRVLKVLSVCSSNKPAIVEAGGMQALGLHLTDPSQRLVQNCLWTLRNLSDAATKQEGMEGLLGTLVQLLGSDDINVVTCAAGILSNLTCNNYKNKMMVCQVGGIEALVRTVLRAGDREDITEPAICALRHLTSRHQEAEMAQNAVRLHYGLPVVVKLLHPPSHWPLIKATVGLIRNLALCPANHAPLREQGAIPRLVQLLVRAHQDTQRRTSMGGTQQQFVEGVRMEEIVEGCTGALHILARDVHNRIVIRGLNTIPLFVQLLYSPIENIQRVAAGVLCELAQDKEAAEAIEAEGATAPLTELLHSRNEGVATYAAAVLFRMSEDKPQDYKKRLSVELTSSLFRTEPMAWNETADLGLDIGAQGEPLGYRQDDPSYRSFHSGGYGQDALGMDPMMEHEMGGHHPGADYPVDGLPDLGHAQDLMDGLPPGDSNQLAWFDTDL
pIC50: −log10 of the molar value.
Recorded Metric: pIC50

{"Compound": "CC(=O)N1CCC[C@]12CC=CCCCC1(CCCC=CCCCOC(=O)N3CC[C@@](C(=O)N[C@@H](Cc4ccccc4C(N)=O)C(=O)N[C@@H](Cc4csc5ccccc45)C(=O)N[C@@H](CCC(N)=O)C(N)=O)(C3)NC(=O)[C@H](CC(N)=O)NC(=O)[C@H](Cc3ccccc3)NC(=O)[C@H](C)NC(=O)[C@H](C)NC(=O)[C@H](CC(=O)O)NC(=O)[C@H](CC(=O)O)NC1=O)NC(=O)[C@H](CC(C)(C)C)NC(=O)[C@H](CC(=O)O)NC2=O (stereo partly drawn)", "Recorded Metric": "pIC50", "Measured Number": 8.05}
{"Compound": "CC(=O)N1CCC[C@]12CC=CCCCC1(CCCC=CCCCOC(=O)N3CC[C@@](C(=O)N[C@@H](Cc4ccsc4)C(=O)N[C@@H](Cc4csc5ccccc45)C(=O)N[C@@H](CC(C)C)C(N)=O)(C3)NC(=O)[C@H]([C@@H](C)O)NC(=O)[C@H](Cc3ccccc3)NC(=O)[C@H](C)NC(=O)[C@H](CCCCNC(C)C)NC(=O)[C@H](CN(CC(=O)O)CC(F)(F)F)NC(=O)[C@H](CC(=O)O)NC1=O)NC(=O)[C@H](CC(C)(C)C)NC(=O)[C@H](CC(=O)O)NC2=O (stereo partly drawn)", "Recorded Metric": "pIC50", "Measured Number": 7.49}
{"Compound": "CC(=O)N1CCC[C@]12CC=CCCCC1(CCCC=CCCCOC(=O)N3CC[C@](C(=O)N[C@@H](Cc4ccsc4)C(=O)N[C@@H](Cc4csc5ccccc45)C(=O)N[C@@H](CCC(N)=O)C(N)=O)(C3)NC(=O)[C@H](CC(N)=O)NC(=O)[C@H](Cc3ccccc3)NC(=O)[C@H](C)NC(=O)[C@H](C)NC(=O)[C@H](CC(=O)O)NC(=O)[C@H](CC(=O)O)NC1=O)NC(=O)[C@H](CC(C)(C)C)NC(=O)[C@H](CC(=O)O)NC2=O (stereo partly drawn) [I-2017]", "Recorded Metric": "pIC50", "Measured Number": 5.69}

====

test: Solubility in PBS; type: physicochemical
Solubility values, listed per item
Recorded Metric: Solubility

{"Molecule": "CC(=O)N1CCC[C@]12CC=CCCCC1(CCCC=CCCCCCC[C@@](C)(C(=O)N[C@@H](Cc3ccccc3)C(=O)N[C@@H](Cc3c[nH]c4ccccc34)C(=O)N[C@@H](CCC(N)=O)C(N)=O)NC(=O)[C@H](C(C)C)NC(=O)[C@H](Cc3ccccc3)NC(=O)[C@H](C)NC(=O)[C@H](C)NC(=O)[C@H](CC(=O)O)NC(=O)[C@H](C)NC1=O)NC(=O)[C@H](C)NC(=O)[C@H](CC(=O)O)NC2=O (stereo partly drawn) [I-351]", "Recorded Metric": "Solubility", "Result": "50 µM"}
{"Molecule": "CC(=O)N1CCC[C@]12CC=CCCCC1(CCCC=CCCCCCC[C@@](C)(C(=O)N[C@@H](Cc3ccsc3)C(=O)N[C@@H](Cc3csc4ccccc34)C(=O)N[C@@H](CCC(N)=O)C(N)=O)NC(=O)[C@H](CC(N)=O)NC(=O)[C@H](Cc3ccccc3)NC(=O)[C@H](C)NC(=O)[C@H](C)NC(=O)[C@H](CN(CC(=O)O)CC(F)(F)F)NC(=O)[C@H](CC(=O)O)NC1=O)NC(=O)[C@H](CC1CCCCC1)NC(=O)[C@H](CC(=O)O)NC2=O (stereo partly drawn) [I-708]", "Recorded Metric": "Solubility", "Result": "47 µM"}
{"Molecule": "CC(=O)N[C@@H](Cc1ccccc1)C(=O)N[C@@H](CC(=O)O)C(=O)N[C@@H](C)C(=O)N[C@]1(C)CCCCCCC=CCOC(=O)N2CC[C@@](C(=O)N[C@@H](Cc3c(F)c(F)c(F)c(F)c3F)C(=O)N[C@@H](Cc3c[nH]c4ccccc34)C(=O)N[C@@H](CCC(N)=O)C(N)=O)(C2)NC(=O)[C@H](C(C)C)NC(=O)[C@H](Cc2ccccc2)NC(=O)[C@H](C)NC(=O)[C@H](C)NC(=O)[C@H](CC(=O)O)NC(=O)[C@H](CC(=O)O)NC1=O [I-227]", "Recorded Metric": "Solubility", "Result": "38 µM"}
